Values compiled from ChEMBL document CHEMBL1131454.

- SYSTEM_UNDER_TEST: Mineralocorticoid receptor (Homo sapiens)
- Sequence (P08235 whole entry): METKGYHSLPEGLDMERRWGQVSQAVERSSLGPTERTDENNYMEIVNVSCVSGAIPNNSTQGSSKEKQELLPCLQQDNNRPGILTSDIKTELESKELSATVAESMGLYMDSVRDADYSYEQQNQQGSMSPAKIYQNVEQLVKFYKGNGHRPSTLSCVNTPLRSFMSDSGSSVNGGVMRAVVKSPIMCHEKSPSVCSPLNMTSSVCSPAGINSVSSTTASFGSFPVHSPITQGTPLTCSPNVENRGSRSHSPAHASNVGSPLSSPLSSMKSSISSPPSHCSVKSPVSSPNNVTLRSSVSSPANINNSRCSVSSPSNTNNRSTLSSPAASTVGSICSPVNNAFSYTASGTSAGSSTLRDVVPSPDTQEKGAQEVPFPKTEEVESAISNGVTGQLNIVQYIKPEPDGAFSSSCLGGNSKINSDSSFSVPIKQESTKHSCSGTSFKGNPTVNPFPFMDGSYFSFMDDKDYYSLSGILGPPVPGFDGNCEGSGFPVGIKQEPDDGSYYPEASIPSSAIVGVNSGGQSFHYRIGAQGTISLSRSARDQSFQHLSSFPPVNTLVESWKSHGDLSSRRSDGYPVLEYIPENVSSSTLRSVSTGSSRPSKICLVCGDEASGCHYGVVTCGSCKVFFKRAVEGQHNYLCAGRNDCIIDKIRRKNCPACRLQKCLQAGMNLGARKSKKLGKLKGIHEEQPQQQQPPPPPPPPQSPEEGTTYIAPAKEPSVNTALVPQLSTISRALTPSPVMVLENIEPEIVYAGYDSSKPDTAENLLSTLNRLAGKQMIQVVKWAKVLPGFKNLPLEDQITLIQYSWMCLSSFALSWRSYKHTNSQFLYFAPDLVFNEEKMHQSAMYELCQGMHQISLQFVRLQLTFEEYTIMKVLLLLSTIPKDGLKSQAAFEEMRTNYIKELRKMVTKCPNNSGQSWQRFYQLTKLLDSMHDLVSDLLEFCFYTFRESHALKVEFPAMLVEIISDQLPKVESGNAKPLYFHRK
- TEST_DETAILS: Antagonistic activity was determined in Human mineralocorticoid receptor(hMR) of CV-1 cells in cotransfection assay.
Reported values of IC50 for individual entries
Your answer is read as µM, so omit the unit and give the number.

CC1=CC(C)(C)Nc2ccc3c(c21)C(c1cccc(Br)c1)Oc1ccccc1-3 (stereo not given)	1.07
CC1=CC(C)(C)Nc2ccc3c(c21)C(c1ccc(Br)cc1)Oc1ccccc1-3 (stereo not given)	0.977
CC1=CC(C)(C)Nc2ccc3c(c21)C(c1ccc(C)c(F)c1)Oc1ccccc1-3 (stereo not given)	1

Q: Reported IC50 for CC1=CC(C)(C)Nc2ccc3c(c21)C(c1cccc(C(F)(F)F)c1)Oc1ccccc1-3 (stereo not given) : what is it?
A: 2.22

====

Reported values of IC50 for individual entries
- SYSTEM_UNDER_TEST: Mineralocorticoid receptor (Homo sapiens)
- TEST_DETAILS: Antagonistic activity was determined in Human mineralocorticoid receptor(hMR) of CV-1 cells in cotransfection assay.
Your answer is read as µM, so omit the unit and give the number.

The cases that follow already have their IC50 on record.
CC1=CC(C)(C)Nc2ccc3c(c21)C(c1ccccc1)Oc1ccccc1-3 (centres undefined)	0.354
CC1=CC(C)(C)Nc2ccc3c(c21)C(c1ccc(Cl)cc1)Oc1ccccc1-3 (centres undefined)	1.53

Q: Reported IC50 for CC1=CC(C)(C)Nc2ccc3c(c21)C(c1cccc(Cl)c1)Oc1ccccc1-3 (centres undefined) : what is it?
A: 0.748

Q: Reported IC50 for CC1=CC(C)(C)Nc2ccc3c(c21)C(c1ccc(Cl)c(C)c1)Oc1ccccc1-3 (centres undefined) : what is it?
A: 2.03

Q: Reported IC50 for CC1=CC(C)(C)Nc2ccc3c(c21)C(c1ccc(Cl)c(Cl)c1)Oc1ccccc1-3 (centres undefined) : what is it?
A: 1.06

====

- SYSTEM_UNDER_TEST: Progesterone receptor (Homo sapiens)
- TEST_DETAILS: Human progesterone receptor (hPR) antagonist efficacy was determined as a function (%) of maximal inhibition of progesterone at EC50 value.
- Assay type: functional
ENDPOINT_NAME: Efficacy (%)
Your answer is read as %, so omit the unit and give the number.

CC1=CC(C)(C)Nc2ccc3c(c21)C(c1cccc(Br)c1)Oc1ccccc1-3 (configuration not stated)	41
CC1=CC(C)(C)Nc2ccc3c(c21)C(c1ccc(Br)cc1)Oc1ccccc1-3 (configuration not stated)	42
CC1=CC(C)(C)Nc2ccc3c(c21)C(c1ccc(C(F)(F)F)cc1)Oc1ccccc1-3 (configuration not stated)	49
CC1=CC(C)(C)Nc2ccc3c(c21)C(c1ccc(Br)nc1)Oc1ccccc1-3 (configuration not stated)	86
CC(=O)c1ccc(C2Oc3ccccc3-c3ccc4c(c32)C(C)=CC(C)(C)N4)cc1 (configuration not stated)	68
CC1=CC(C)(C)Nc2ccc3c(c21)C(c1ccc(C)cc1)Oc1ccccc1-3 (configuration not stated)	38

Q: Reported Efficacy for CC1=CC(C)(C)Nc2ccc3c(c21)C(c1cccc(Cl)c1)Oc1ccccc1-3 (configuration not stated) : what is it?
A: 37

Q: Reported Efficacy for COc1ccc(C2Oc3ccccc3-c3ccc4c(c32)C(C)=CC(C)(C)N4)cc1 (configuration not stated) : what is it?
A: 65

Q: Reported Efficacy for CC1=CC(C)(C)Nc2ccc3c(c21)C(c1cc(F)cc(Br)c1)Oc1ccccc1-3 (configuration not stated) : what is it?
A: 65
